- Measurement target: T1, Rhesus-ICAM1 (rhesus, UniProt Q5NKV6 28-480, limits assumed)
- T1 sequence (looked up): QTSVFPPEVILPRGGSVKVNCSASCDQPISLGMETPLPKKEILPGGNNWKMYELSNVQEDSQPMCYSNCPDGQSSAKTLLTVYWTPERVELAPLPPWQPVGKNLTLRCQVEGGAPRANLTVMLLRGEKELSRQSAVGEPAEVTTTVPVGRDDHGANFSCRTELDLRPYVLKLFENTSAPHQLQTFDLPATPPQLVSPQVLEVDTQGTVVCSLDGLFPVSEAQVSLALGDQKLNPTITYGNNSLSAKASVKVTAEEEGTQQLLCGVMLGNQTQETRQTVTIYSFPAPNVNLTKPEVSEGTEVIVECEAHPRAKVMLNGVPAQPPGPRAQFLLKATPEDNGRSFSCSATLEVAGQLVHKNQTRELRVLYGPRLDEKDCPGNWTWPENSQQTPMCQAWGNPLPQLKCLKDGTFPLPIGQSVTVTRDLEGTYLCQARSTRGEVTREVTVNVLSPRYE
- Method description: SPR (Biacore 8K), antibody captured, antigen injected
Value type: kon (M⁻¹ s⁻¹)
Supply the numeric figure in M⁻¹ s⁻¹, leaving out any unit text.

8B12 (antibody, human IgG1, kappa, V domains shown, Rabbit-human chimeric anti-ICAM1: rabbit VH and VL on human IgG1 and kappa constant regions) VH: QSVEESGGGLVKPGGTLTLTCTVSGFSLSTHAMGWVRQAPGKGLEYIGIIGSSDRTYYASWAKGRFTISKTSTTVDLKITSPTTEDTATYFCVRDPYDSFDDGYRLWGPGTLVTVSS VL: AYDMTQTPASVEVAVGGTVTIKCQASQSIYSYLSWYQQKPGQRPKFLIYDASKVASGVPSRFKGSGSGTEFTLTISAVQSDDAATYYCQQAYSSSNVDNAFGGGTEVMVKR = 746000

Now for the binder whose kon we want.
Query: Data request, read-out kon, for 14B3 (antibody, human IgG1, kappa, V domains shown, Rabbit-human chimeric anti-ICAM1: rabbit VH and VL on human IgG1 and kappa constant regions) VH: QSLEESGGDLVKPGASLTLTCTASGFSSSSGYYICWVRQAPGKGLEWIACIGAGSGAAYYASWAKGRFTMSKTSSTTVTLQMTSLTAADTATYFCARGGFVVGGGYGGYCFNLWGPGTLVTVSS VL: AQVLTQTASSVSATVGGTVTISCQSSESVDVNNLAWYQQKPGQPPKLLIYSASTLASGVPSRFKGSGSGTQFTLTVSDLESADAATYYCAGGYSGNIFAFGGGTAVVVKR
Response: 186000

Taken from patent US20220002432A1.
